tested on: CAL-120; assay: normalised response (% of control), CellTiter-Glo; higher = more viable cells (100 = DMSO, 0 = benzethonium chloride kill control); conditions: incubation time: 72 h
Below, each entry is listed alongside its reported normalised response.
# value in %; strip the unit string

Enquiry: Answer with the recorded normalised response for the compound listed here: CCCCCOC(=O)Nc1nc(=O)n([C@@H]2O[C@H](C)[C@@H](O)[C@H]2O)cc1F [Capecitabine] (10000 nM)
Return: 98.5

Enquiry: Identify the reported normalised response for the following entry. CC[C@H](CC#N)OC(=O)N[C@@H](C)c1cccc(NC(=O)Nc2ccc(-c3cnco3)c(OC)c2)c1 [AVN944] (10000 nM)
Return: 50.6

Enquiry: Provide measured normalised response value, entry: COc1cc2c(Oc3ccc(NC(=O)C4(C(=O)Nc5ccc(F)cc5)CC4)cc3F)ccnc2cc1OCCCN1CCOCC1 [Foretinib] (1000 nM)
Return: 68

Enquiry: Output measured normalised response for this item: O=NN(CCCl)C(=O)NC1CCCCC1 [Lomustine] (10000 nM)
Return: 98.5
